- Tested on: Zr-75-1
- MEASUREMENT DESCRIPTION: SRB assay, breast cancer cell line Zr-75-1
- Type: cell-based
- CONDITION INFO: Homo sapiens, ZR-75-1, 48 h, read-out: In vitro anticancer activity GI50, Breast Zr-75-1
MEASURED METRIC: GI50 (nM)
Give bare numbers, in nM.

MOLECULE	SUBJECT OF TEST	UNIT SPEC	GI50
COc1ccc(/C=C(/C(=O)N[C@@H]2c3cc4c(cc3[C@@H](c3cc(OC)c(OC)c(OC)c3)[C@H]3C(=O)OC[C@@H]32)OCO4)c2cc(OC)c(OC)c(OC)c2)c(F)c1 [Compound 3f]	Zr-75-1	nM	2500
COc1cc(/C(=C\c2ccccc2[N+](=O)[O-])C(=O)N[C@@H]2c3cc4c(cc3[C@@H](c3cc(OC)c(OC)c(OC)c3)[C@H]3C(=O)OC[C@@H]32)OCO4)cc(OC)c1OC [Compound 3k]	Zr-75-1	nM	2500
COc1cccc(/C=C(/C(=O)N[C@@H]2c3cc4c(cc3[C@@H](c3cc(OC)c(OC)c(OC)c3)[C@H]3C(=O)OC[C@@H]32)OCO4)c2cc(OC)c(OC)c(OC)c2)c1 [Compound 3o]	Zr-75-1	nM	180

# evaluate next
Lab note: record GI50 of COc1ccccc1/C(=C\c1ccc([N+](=O)[O-])cc1)C(=O)N[C@@H]1c2cc3c(cc2[C@@H](c2cc(OC)c(OC)c(OC)c2)[C@H]2C(=O)OC[C@@H]21)OCO3 [Compound 3l] tested on Zr-75-1.
2100

====

- Tested on: Hop62
- MEASUREMENT DESCRIPTION: SRB assay, lung cancer cell line Hop62
- Assay type: cell-based
- CONDITION INFO: Homo sapiens, HOP-62, 48 h, read-out: In vitro anticancer activity GI50, Lung Hop62
Please respond with reported GI50 for every item in the list.
One number for each entry, in µM.

MOLECULE	UNIT SPEC	REPORTED RESULT
COc1cc(/C=C(/C(=O)N[C@@H]2c3cc4c(cc3[C@@H](c3cc(OC)c(OC)c(OC)c3)[C@H]3C(=O)OC[C@@H]32)OCO4)c2cc(OC)c(OC)c(OC)c2)ccc1O	µM	2.5

For every record below, what is its GI50?
1. COc1cc(/C(=C\c2ccc([N+](=O)[O-])cc2)C(=O)N[C@@H]2c3cc4c(cc3[C@@H](c3cc(OC)c(OC)c(OC)c3)[C@H]3C(=O)OC[C@@H]32)OCO4)cc(OC)c1OC
2. COc1ccc(/C=C(/C(=O)N[C@@H]2c3cc4c(cc3[C@@H](c3cc(OC)c(OC)c(OC)c3)[C@H]3C(=O)OC[C@@H]32)OCO4)c2cc(OC)c(OC)c(OC)c2)c(F)c1

[2.7, 0.17]

Give measured GI50 for every item shown.
1. COc1cc(/C(=C\c2ccc(O)cc2)C(=O)N[C@@H]2c3cc4c(cc3[C@@H](c3cc(OC)c(OC)c(OC)c3)[C@H]3C(=O)OC[C@@H]32)OCO4)cc(OC)c1OC
2. COc1ccc(/C=C(/C(=O)N[C@@H]2c3cc4c(cc3[C@@H](c3cc(OC)c(OC)c(OC)c3)[C@H]3C(=O)OC[C@@H]32)OCO4)c2cc(OC)c(OC)c(OC)c2)cc1O

1. 2.6
2. 2.9

Just for reference, patent US8673969B2 is where these values come from.
